- System: Vero
- EXPERIMENT_DESCRIPTION: Effective concentration required to inhibit PuntaToro virus-induced cytopathicity by 50% in Vero cell lines
- Assay type: functional, cell-based
- PARTICULARS: Chlorocebus sabaeus
READOUT: EC50

Fill in the blank: the reported EC50 of C#CCSC[C@H]1OC(n2cnc3c(N)ncnc32)[C@H](O)[C@@H]1O (some centres undefined) is ____.
> 120 µM

What does the data say about its EC50? Entry: CC#CSC[C@H]1OC(n2cnc3c(N)ncnc32)[C@H](O)[C@@H]1O (some centres undefined)
> 120 µM

Quick check: EC50 of NC(=O)c1ncn([C@@H]2O[C@H](CO)[C@@H](O)[C@H]2O)n1 [RIBAVIRIN] ?
40 µM

Record request: EC50 value, item C=C=CSC[C@H]1OC(n2cnc3c(N)ncnc32)[C@H](O)[C@@H]1O (some centres undefined)
> 620 µM

----------
- Tested on: E6SM
- EXPERIMENT_DESCRIPTION: Effective concentration required to inhibit Herpes simplex virus-1 (HSV-1) induced cytopathicity by 50% in E6SM cell lines
- Type: functional, cell-based
- PARTICULARS: Homo sapiens
For each record, write down the corresponding EC50.
Please give a number only; it is taken to be in µM.

EC50 lookup needed for NC(=O)c1ncn([C@@H]2O[C@H](CO)[C@@H](O)[C@H]2O)n1 , thanks.
320

What does the record list as EC50 for C=C=CSC[C@H]1OC(n2cnc3c(N)ncnc32)[C@H](O)[C@@H]1O (stereo not given in full) ?
250

Query (molecule): CC#CSC[C@H]1OC(n2cnc3c(N)ncnc32)[C@H](O)[C@@H]1O (stereo not given in full) ; field requested: EC50
250

Requested field: EC50. Item: Nc1nc2c(ncn2COC(CO)CO)c(=O)[nH]1
0.0012

----------
- Test system: HEL
- EXPERIMENT_DESCRIPTION: Effective concentration required to inhibit Thymidine kinase deficient (TK-) Varicella-Zoster virus-induced cytopathicity by 50% in 07/01 strain HEL cell lines
- Format: functional, cell-based
- PARTICULARS: Homo sapiens
For each record, write down the corresponding pEC50.
// pEC50 is dimensionless: -log10 of concentration (M)

Suppose we examine the molecule C#CCSC[C@H]1OC(n2cnc3c(N)ncnc32)[C@H](O)[C@@H]1O (some centres undefined) ; what pEC50 value has been reported?
3.81

Look at this molecule and give its reported pEC50. CC#CSC[C@H]1OC(n2cnc3c(N)ncnc32)[C@H](O)[C@@H]1O (some centres undefined)
3.70

Request the reported pEC50 associated with C=C=CSC[C@H]1OC(n2cnc3c(N)ncnc32)[C@H](O)[C@@H]1O (some centres undefined)
4.06

Which measured pEC50 value corresponds to Nc1nc2c(ncn2COCCO)c(=O)[nH]1 ?
4.39

----------
For each record, write down the corresponding MIC.
- Test system: HEL
- EXPERIMENT_DESCRIPTION: Minimum inhibitory concentration required to elicit microscopically visible cell morphology in HEL cell lines
- Type: functional
- PARTICULARS: Homo sapiens

Give its MIC value. Item: CC#CSC[C@H]1OC(n2cnc3c(N)ncnc32)[C@H](O)[C@@H]1O (stereo not given in full)
> 200 µM

For the molecule shown here, C=C=CSC[C@H]1OC(n2cnc3c(N)ncnc32)[C@H](O)[C@@H]1O (stereo not given in full) , give the reported MIC.
> 200 µM

Suppose we examine the molecule Nc1nc2c(ncn2COC(CO)CO)c(=O)[nH]1 [GANCICLOVIR] ; what MIC value has been reported?
> 150 µM

Would you kindly share the measured MIC for C#CCSC[C@H]1OC(n2cnc3c(N)ncnc32)[C@H](O)[C@@H]1O (stereo not given in full) ?
> 200 µM

Entry Nc1nc2c(ncn2COCCO)c(=O)[nH]1 [ACYCLOVIR] has what MIC?
> 150 µM

----------
- TARGET_DESC: Adenosylhomocysteinase (Homo sapiens)
- Sequence (P23526 whole entry): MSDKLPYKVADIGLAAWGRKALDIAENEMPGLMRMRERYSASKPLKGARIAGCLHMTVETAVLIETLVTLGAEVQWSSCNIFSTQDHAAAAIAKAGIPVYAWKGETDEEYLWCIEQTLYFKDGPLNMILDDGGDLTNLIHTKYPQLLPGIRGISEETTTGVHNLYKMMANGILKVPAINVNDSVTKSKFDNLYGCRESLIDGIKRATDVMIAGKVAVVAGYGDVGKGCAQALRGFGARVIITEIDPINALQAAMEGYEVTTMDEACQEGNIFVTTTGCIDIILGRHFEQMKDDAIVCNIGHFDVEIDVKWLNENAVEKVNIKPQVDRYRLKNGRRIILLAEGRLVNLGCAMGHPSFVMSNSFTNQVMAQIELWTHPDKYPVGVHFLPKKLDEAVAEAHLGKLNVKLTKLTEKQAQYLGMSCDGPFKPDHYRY
- EXPERIMENT_DESCRIPTION: Inhibition of purified recombinant human placental S-adenosyl-homocysteine hydrolase
READOUT: Ki (µM)
Quick reminder: number only, in µM, skip the unit.

Requested field: Ki. Item: C=C=CSC[C@H]1OC(n2cnc3c(N)ncnc32)[C@H](O)[C@@H]1O (stereo partly drawn)
16

Give its Ki value. Item: C#CCSC[C@H]1OC(n2cnc3c(N)ncnc32)[C@H](O)[C@@H]1O (stereo partly drawn)
45

GET /values?readout=Ki&item= CC#CSC[C@H]1OC(n2cnc3c(N)ncnc32)[C@H](O)[C@@H]1O (stereo partly drawn)
16

----------
- Tested on: HeLa
- EXPERIMENT_DESCRIPTION: Effective concentration required to inhibit Coxsackie virus B4-induced cytopathicity by 50% in HeLa cell lines
- Type: functional, cell-based
- PARTICULARS: Homo sapiens
So I've got a bunch of compounds here, and I need their EC50 values.

# EC50 lookup, item C#CCSC[C@H]1OC(n2cnc3c(N)ncnc32)[C@H](O)[C@@H]1O (stereo not given in full)
> 120 µM

Value lookup for EC50; key = C=C=CSC[C@H]1OC(n2cnc3c(N)ncnc32)[C@H](O)[C@@H]1O (stereo not given in full)
> 600 µM

Suppose we examine the compound NC(=O)c1ncn([C@@H]2O[C@H](CO)[C@@H](O)[C@H]2O)n1 [RIBAVIRIN] ; what EC50 value has been reported?
> 320 µM

Can you share its EC50? I mean this compound: CC#CSC[C@H]1OC(n2cnc3c(N)ncnc32)[C@H](O)[C@@H]1O (stereo not given in full)
> 120 µM

Need EC50, item Nc1ncnc2c1ncn2C[C@H](O)CO [(S)-DHPA]
230 µM

----------
- Tested on: HeLa
- EXPERIMENT_DESCRIPTION: Effective concentration required to inhibit respiratory synaptial(RSV) virus-induced cytopathicity by 50% in HeLa cell lines
- Type: functional, cell-based
- PARTICULARS: Homo sapiens
pEC50: −log10 of the molar value.
READOUT: pEC50

Could you tell me which pEC50 is on file for C=C=CSC[C@H]1OC(n2cnc3c(N)ncnc32)[C@H](O)[C@@H]1O (some centres undefined) ?
< 3.60

Quick one: pEC50 of C#CCSC[C@H]1OC(n2cnc3c(N)ncnc32)[C@H](O)[C@@H]1O (some centres undefined) ?
< 3.60

# get_value(readout='pEC50', item= NC(=O)c1ncn([C@@H]2O[C@H](CO)[C@@H](O)[C@H]2O)n1 )
5.82

# pEC50 lookup, item CC#CSC[C@H]1OC(n2cnc3c(N)ncnc32)[C@H](O)[C@@H]1O (some centres undefined)
< 3.60

----------
- System: HeLa
- EXPERIMENT_DESCRIPTION: Minimum inhibitory concentration required to elicit microscopically visible cell morphology in HeLa cell lines
- Assay type: functional
- PARTICULARS: Homo sapiens
READOUT: MIC

Name the reported MIC value associated with the compound Nc1ncnc2c1ncn2C[C@H](O)CO [(S)-DHPA]
> 2000 µM

Any idea what MIC was measured for CC#CSC[C@H]1OC(n2cnc3c(N)ncnc32)[C@H](O)[C@@H]1O (stereo partly drawn) ?
> 1240 µM

# query: MIC of entry NC(=O)c1ncn([C@@H]2O[C@H](CO)[C@@H](O)[C@H]2O)n1
> 1600 µM
